Data provenance: patent US5627206A

experiment: Plasma concentrations after oral dosing; type: in vivo, Wistar rats; conditions: rat, plasma, po; post-treatment; read-out: time of peak plasma concentration
Measured quantity: Tmax (h)
Lab book: enter the figure in h, no units written.

compound O=C(O)CCC(=NO)c1ccc2oc3ccccc3c2c1 , Tmax observed: 1

====

test: Plasma concentrations after oral dosing; type: in vivo, Wistar rats; conditions: rat, plasma, po; 50-mg/kg dose; read-out: plasma concentration (Cmax)
Measured quantity: Cmax
Value and unit, in that order.

compound O=C(O)CCC(=NO)c1ccc2oc3ccccc3c2c1 , Cmax observed: 163 µM

====

Test: Plasma concentrations after oral dosing
Type: in vivo, Wistar rats
Details: rat, plasma, po; 2-mg/kg dose; read-out: plasma concentration (Cmax)
Procedure: The activity of Example 2 as a general inhibitor of inflammation was tested using the Mycobacterium footpad edema assay (MFE) in Wistar rats. Compound was administered daily by gavage at 2 mg/kg, 10 mg/kg, or 50 mg/kg. […] The bioavailability of this compound is therefore well in excess of the effective range of gelatinase A inhibition determined in the in vitro assays.
Measured quantity: Cmax (µM)
Lab book: enter the figure in µM, no units written.

compound O=C(O)CCC(=NO)c1ccc2oc3ccccc3c2c1 , Cmax observed: 4.62

====

target: collagenase (full-length native enzyme) (Homo sapiens)
Sequence (P03956 100-469): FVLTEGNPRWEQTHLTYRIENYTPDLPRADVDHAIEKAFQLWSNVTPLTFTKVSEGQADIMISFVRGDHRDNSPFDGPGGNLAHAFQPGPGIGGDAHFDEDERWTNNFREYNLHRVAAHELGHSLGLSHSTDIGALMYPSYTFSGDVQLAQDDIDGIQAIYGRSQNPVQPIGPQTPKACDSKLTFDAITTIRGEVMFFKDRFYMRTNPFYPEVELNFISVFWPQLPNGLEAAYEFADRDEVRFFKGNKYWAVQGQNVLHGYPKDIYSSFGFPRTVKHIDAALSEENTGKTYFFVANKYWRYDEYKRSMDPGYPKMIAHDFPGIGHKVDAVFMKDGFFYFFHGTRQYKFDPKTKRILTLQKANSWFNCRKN
Measured quantity: IC50

molecule O=C(O)CCC(=NO)c1ccc2oc3ccccc3c2c1 [Example 2] , IC50 observed: > 100 µM
